Molecular target: CCR2 (Homo sapiens, UniProt P41597)
Construct: Membranes were prepared from THP-1 cells; endogenous in cells
Sequence (P41597 1-360 isoform P41597-2): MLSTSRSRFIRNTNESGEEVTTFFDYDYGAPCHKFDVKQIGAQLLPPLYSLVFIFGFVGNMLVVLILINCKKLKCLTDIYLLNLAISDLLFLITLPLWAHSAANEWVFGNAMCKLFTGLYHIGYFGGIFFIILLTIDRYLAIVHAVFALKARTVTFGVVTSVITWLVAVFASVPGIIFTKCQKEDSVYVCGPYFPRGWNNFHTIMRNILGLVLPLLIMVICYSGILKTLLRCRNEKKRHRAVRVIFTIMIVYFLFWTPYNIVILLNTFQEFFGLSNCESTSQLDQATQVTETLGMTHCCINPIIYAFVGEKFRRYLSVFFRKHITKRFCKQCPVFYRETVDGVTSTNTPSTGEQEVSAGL
Test: CCR2 receptor membrane binding assay ([125I]MCP-1, THP-1 cell membranes, SPA beads)
Conditions: dissociation constant hKi; [125I]MCP-1 binding to THP-1 membranes
endpoint: Ki (nM)

The following molecules have reported results that may help.
molecule	measuredOn	Ki, nM
Cc1c(NCC2CC(c3ccccc3)CO2)ncnc1C(=O)N1CCC(N2CCC(N(C)S(C)(=O)=O)CC2)CC1 (stereo not drawn) [Example 159eb]	CCR2 (Homo sapiens, UniProt P41597)	72
Cc1c(Oc2ccc(C(C)(C)C)cc2)ncnc1C(=O)N1CCC(N2CCC(N(C)S(C)(=O)=O)CC2)CC1 [Example 291]	CCR2 (Homo sapiens, UniProt P41597)	3120
CNC(=O)[C@H]1CCN(C2CCN(C(=O)c3ncnc(NCc4ccc(Cl)c(Cl)c4)c3C)CC2)C1 [Example 257]	CCR2 (Homo sapiens, UniProt P41597)	186

P. COC1CCN(C2CCN(C(=O)c3ncnc(NCC4CCCC(c5ccc(F)cc5)C4)c3C)CC2)CC1 (stereo not drawn) [Example 159kb]
Q. Cc1c(NCC2CCCCCC2)ncnc1C(=O)N1CCC(N2CCC(N(C)S(C)(=O)=O)CC2)CC1 [Example 159fa]
R. CNC(=O)C[C@H]1CCCN1C1CCN(C(=O)c2ncnc(NCc3ccc(C(C)(C)C)cc3)c2C)CC1 [Example 214]
S. Cc1c(NCc2ccc(F)c(Cl)c2)ncnc1C(=O)N1CCC(N2CCC(O)CC2)CC1 [Example 111]
Please rank these molecules by Ki in descending order. I would appreciate it if you listed the labels in the requested order.
R, S, Q, P

A. Cc1c(NCC2CCC(c3ccc(C(F)(F)F)cc3)O2)ncnc1C(=O)N1CCC(N2CCC(N(C)S(C)(=O)=O)CC2)CC1 (stereo not drawn) [Example 159hb]
B. Cc1c(NCCc2ccc(F)c(F)c2)ncnc1C(=O)N1CCC(N2CCC(O)CC2)CC1 [Example 115]
C. Cc1c(NCc2ccc(C(C)(C)C)cc2)ncnc1C(=O)N1CCC(N2CCC(NS(=O)(=O)C(C)C)CC2)CC1 [Example 205]
Sequence the entries by Ki, beginning with the highest number. Dear reader, please state the labels in the requested order.
B, C, A

A. Cc1ccc(CNc2ncnc(C(=O)N3CCC(N4CCOCC4)CC3)c2C)cc1F [Example 44]
B. Cc1c(NCCc2ccc(Cl)c(Cl)c2)ncnc1C(=O)N1CCC(N2CC[C@H](O)C2)CC1 [Example 166]
Consider A and B . Which of these has its Ki at a higher number? Reply briefly: the label of your chosen item.
A
(A: 1640 nM, B: 227 nM)

I. Cc1c(NC[C@@H]2CCC[C@@H](c3ccccc3)C2)ncnc1C(=O)N1CCC(N2CCC(N(C)S(C)(=O)=O)CC2)CC1 [Example 158]
II. CC(=O)N1CCN(C2CCN(C(=O)c3ncnc(NCCc4ccc(Cl)c(Cl)c4)c3C)CC2)CC1 [Example 230]
III. Cc1nc(NCCc2ccc(Cl)c(Cl)c2)c(C)c(C(=O)N2CCC(N3CCC(O)CC3)CC2)n1 [Example 91]
Could you please order the items by Ki, going from the lowest number to the highest? Please, when replying, give the labels in the order that was requested.
I, III, II
(I: 6 nM, III: 236 nM, II: 1840 nM)

Attribution: patent US8835440B2
